# MEASURED ON: interaction between p53 and MDM2 proteins (recombinant GST-tagged MDM2) (Homo sapiens)
# Sequence (Q00987 whole entry): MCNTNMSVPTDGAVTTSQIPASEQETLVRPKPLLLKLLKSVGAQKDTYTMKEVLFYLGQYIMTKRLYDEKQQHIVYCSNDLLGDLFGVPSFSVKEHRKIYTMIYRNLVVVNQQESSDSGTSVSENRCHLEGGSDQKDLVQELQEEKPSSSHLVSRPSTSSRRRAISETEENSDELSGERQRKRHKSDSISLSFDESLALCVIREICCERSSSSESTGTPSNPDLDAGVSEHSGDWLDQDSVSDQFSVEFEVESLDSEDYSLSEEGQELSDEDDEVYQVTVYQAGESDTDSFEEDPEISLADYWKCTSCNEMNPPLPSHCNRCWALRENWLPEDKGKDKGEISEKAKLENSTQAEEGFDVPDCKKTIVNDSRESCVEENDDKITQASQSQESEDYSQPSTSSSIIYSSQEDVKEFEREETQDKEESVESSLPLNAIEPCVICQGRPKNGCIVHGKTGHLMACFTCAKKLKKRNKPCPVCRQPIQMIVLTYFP
# ASSAY PROCEDURE: HTRF assay of inhibition of the p53-MDM2 interaction (GST-MDM2 / biotinylated p53 peptide)
# Assay type: binding
# EXPERIMENTAL CONTEXT: HTRF, 0.02% BSA, 37° C. 1 h
REPORTED METRIC: pIC50
pIC50 field: float, defined as -log10 of concentration (mol/L).

Measured pIC50 (interaction between p53 and MDM2 proteins (recombinant GST-tagged MDM2) (Homo sapiens)), entry COc1cc(C(=O)OCCC(=O)OC(C)(C)C)ccc1NC(=O)[C@@H]1N[C@@H](CC(C)(C)C)[C@](C#N)(c2ccc(Cl)cc2F)[C@H]1c1cccc(Cl)c1F : 7.80

====

# MEASURED ON: interaction between p53 and MDM2 proteins (recombinant GST-tagged MDM2) (Homo sapiens)
# ASSAY PROCEDURE: HTRF assay of inhibition of the p53-MDM2 interaction (GST-MDM2 / biotinylated p53 peptide);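 note: FRET read-out from Eu-labelled anti-GST antibody to streptavidin-APC, with 90 nM N-terminally biotinylated p53 peptide and 160 ng/ml GST-MDM2 in Tris-borate saline containing 1 mM DTT, 384-well format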
# Type: binding
# EXPERIMENTAL CONTEXT: HTRF, 0.02% BSA, 37° C. 1 h
Structures can show the parent of a compound that is named as a salt.
REPORTED METRIC: pIC50
pIC50 field: float, defined as -log10 of concentration (mol/L).

As a guide, the following entries are already answered.
| COMPOUND | pIC50 |
| --- | --- |
| COc1cc(C(=O)OC[C@H]2O[C@@H](O)[C@H](O)[C@@H](O)[C@@H]2O)ccc1NC(=O)[C@@H]1N[C@@H](CC(C)(C)C)[C@](C#N)(c2ccc(Cl)cc2F)[C@H]1c1cccc(Cl)c1F | 8.16 |
| COc1cc(C(=O)NN)ccc1NC(=O)[C@@H]1N[C@@H](CC(C)(C)C)[C@](C#N)(c2ccc(Cl)cc2F)[C@H]1c1cccc(Cl)c1F | 7.44 |
| COc1cc(C(=O)N[C@H](CCC(=O)O)C(=O)O)ccc1NC(=O)[C@@H]1N[C@@H](CC(C)(C)C)[C@](C#N)(c2ccc(Cl)cc2F)[C@H]1c1cccc(Cl)c1F [Example 54, hydrochloride] | 8.34 |
| COc1cc(C(=O)N(C)C)ccc1NC(=O)[C@@H]1N[C@@H](CC(C)(C)C)[C@](C#N)(c2ccc(Cl)cc2F)[C@H]1c1cccc(Cl)c1F | 7.89 |
| COc1cc(C(=O)OCCC(=O)O)ccc1NC(=O)[C@@H]1N[C@@H](CC(C)(C)C)[C@](C#N)(c2ccc(Cl)cc2F)[C@H]1c1cccc(Cl)c1F | 7.99 |

The measured pIC50 associated with COc1cc(C(=O)OCC(=O)N2CCN(C)CC2)ccc1NC(=O)[C@@H]1N[C@@H](CC(C)(C)C)[C@](C#N)(c2ccc(Cl)cc2F)[C@H]1c1cccc(Cl)c1F [Example 64, hydrochloride] reads 7.94

The measured pIC50 associated with COc1cc(C(=O)OCCN2CCN(C)CC2)ccc1NC(=O)[C@@H]1N[C@@H](CC(C)(C)C)[C@](C#N)(c2ccc(Cl)cc2F)[C@H]1c1cccc(Cl)c1F reads 8.25

The measured pIC50 associated with COC(=O)CC[C@@H](NC(=O)c1ccc(NC(=O)[C@@H]2N[C@@H](CC(C)(C)C)[C@](C#N)(c3ccc(Cl)cc3F)[C@H]2c2cccc(Cl)c2F)c(OC)c1)C(=O)OC [Example 53, hydrochloride] reads 7.90

The measured pIC50 associated with COCCOCCOCCOCCOC(=O)COC(=O)c1ccc(NC(=O)[C@@H]2N[C@@H](CC(C)(C)C)[C@](C#N)(c3ccc(Cl)cc3F)[C@H]2c2cccc(Cl)c2F)c(OC)c1 reads 7.71

The measured pIC50 associated with COCCOCCOCCOCCOC(=O)c1ccc(NC(=O)[C@@H]2N[C@@H](CC(C)(C)C)[C@](C#N)(c3ccc(Cl)cc3F)[C@H]2c2cccc(Cl)c2F)c(OC)c1 [Example 49, hydrochloride] reads 7.86
